# Measured on: human cannabis CB1 receptor (Homo sapiens)
# Construct: expressed in transfected cells; host or cells: human embryonic kidney (HEK) cells, Semliki Forest Virus system, membrane preparation
# Sequence (P21554 whole entry): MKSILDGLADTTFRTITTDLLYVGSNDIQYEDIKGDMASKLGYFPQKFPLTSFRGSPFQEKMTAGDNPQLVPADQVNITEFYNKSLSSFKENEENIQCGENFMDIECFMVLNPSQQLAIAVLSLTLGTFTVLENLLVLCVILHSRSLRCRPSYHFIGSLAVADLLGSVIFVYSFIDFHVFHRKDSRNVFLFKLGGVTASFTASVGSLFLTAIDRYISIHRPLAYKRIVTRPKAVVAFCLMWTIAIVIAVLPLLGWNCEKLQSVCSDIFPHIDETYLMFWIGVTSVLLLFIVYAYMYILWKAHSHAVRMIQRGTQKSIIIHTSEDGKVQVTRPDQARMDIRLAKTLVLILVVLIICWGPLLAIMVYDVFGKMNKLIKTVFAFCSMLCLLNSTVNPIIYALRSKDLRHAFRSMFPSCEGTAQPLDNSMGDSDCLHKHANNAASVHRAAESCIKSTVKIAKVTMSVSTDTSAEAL
# Test protocol: CB1 receptor affinity, [3H]-CP-55,940 radioligand binding on HEK cell membranes
# Measurement context: Table 2; read-out: CB1 receptor affinity IC50
Measurement kind: IC50 (nM)
// return numeric value only (unit: nM, not printed)

human cannabis CB1 receptor (Homo sapiens) IC50 of O=C(c1cc2c(cc1F)OC(c1ccc(Cl)cc1)(c1ccc(Cl)cc1)O2)N1CCOCC1 [reference compound] is 26

human cannabis CB1 receptor (Homo sapiens) IC50 of O=C(c1cc2c(cc1F)O[C@@](c1ccc(Cl)cc1)(c1ccc(Cl)cc1Cl)O2)N1CCOCC1 is 17

====

# Measured on: human cannabis CB1 receptor (Homo sapiens)
# Construct: expressed in transfected cells; host or cells: human embryonic kidney (HEK) cells, Semliki Forest Virus system, membrane preparation
# Test protocol: CB1 receptor affinity, [3H]-CP-55,940 radioligand binding on HEK cell membranes
# Measurement context: Table 1; read-out: IC50 (affinity for the CB1 receptor)
Measurement kind: pIC50
pIC50 field: float, defined as -log10 of concentration (mol/L).

Known results for compounds:
O=C(c1cc2c(cc1F)O[C@](c1ccccc1F)(c1ccc(Cl)cc1Cl)O2)N1CCOCC1; 8.30
O=C(c1cc2c(cc1F)O[C@](c1ccc(F)cc1)(c1ccc(Cl)cc1Cl)O2)N1CCOCC1; 8.15
O=C(c1cc2c(cc1F)O[C@@](c1ccc(F)cc1)(c1ccc(Cl)cc1Cl)O2)N1CCOCC1; 7.12

Entry O=C(c1cc2c(cc1F)O[C@](c1ccc(Cl)cc1)(c1ccc(Cl)cc1Cl)O2)N1CCOCC1 , pIC50 reported as 8.60

Entry O=C(c1cc2c(cc1F)O[C@@](c1ccc(Cl)cc1)(c1ccc(Cl)cc1Cl)O2)N1CCOCC1 , pIC50 reported as 7.77

Entry O=C(c1cc2c(cc1F)O[C@@](c1ccccc1F)(c1ccc(Cl)cc1Cl)O2)N1CCOCC1 , pIC50 reported as 7.48
